# experimental.target: recombinant human KRAS wild type (SOS1-mediated nucleotide exchange) (Homo sapiens (Human), UniProt P01116)
# Sequence (P01116-2 other isoform, or with tags, fused parts or gaps): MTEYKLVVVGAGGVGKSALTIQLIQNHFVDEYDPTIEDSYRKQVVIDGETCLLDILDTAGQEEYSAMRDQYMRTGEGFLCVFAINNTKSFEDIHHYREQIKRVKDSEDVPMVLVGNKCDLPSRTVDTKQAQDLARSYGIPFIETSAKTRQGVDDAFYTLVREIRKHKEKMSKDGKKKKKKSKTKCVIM
# assay.notes: KRAS biochemical assay, BODIPY-GDP exchange TR-FRET (WT-GDP HTRF)
pIC50: −log10 of the molar value.
measurement.label: pIC50

molecule | measurement.label | reported
C[C@H](c1cccnc1N)N1CCOc2nc(-c3c(C(F)(F)F)ccc(N)c3Cl)c(F)c3nc(OC[C@@]45CCCN4C[C@H](F)C5)nc1c23 (atropisomer, axis not shown; (aS)) [Example 622a] | pIC50 | 9.24
C#Cc1cccc2nc(N)cc(-c3nc4c5c(nc(OC[C@@]67CCCN6C[C@H](F)C7)nc5c3F)N([C@H](C)c3cccnc3N)CCO4)c12 | pIC50 | 9.94
Cc1c(F)c(N)nc(-c2nc3c4c(nc(OC[C@@]56CCCN5C[C@H](F)C6)nc4c2F)N([C@H](C)c2nccnc2N)CCO3)c1C(F)(F)F | pIC50 | 8.70

* * *

# experimental.target: recombinant human mutant KRas G12V (SOS1-mediated nucleotide exchange) (Homo sapiens (Human), UniProt P01116, G12V)
# Sequence (P01116-2 other isoform, or with tags, fused parts or gaps G12V): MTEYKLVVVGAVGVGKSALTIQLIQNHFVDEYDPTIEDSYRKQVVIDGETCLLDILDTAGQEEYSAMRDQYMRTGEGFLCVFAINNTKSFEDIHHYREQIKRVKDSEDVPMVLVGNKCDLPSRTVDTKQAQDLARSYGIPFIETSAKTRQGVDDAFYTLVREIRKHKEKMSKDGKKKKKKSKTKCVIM
# assay.notes: KRAS biochemical assay, BODIPY-GDP exchange TR-FRET (G12V-GDP HTRF)
Exam item: assign True to entries whose IC50 is below 0.2 nM and False to entries at or above 0.2 nM. Note that a value of exactly 0.2 nM receives False.

compound.string | qualitative.label
C#Cc1c(F)ccc2cc(O)cc(-c3nc4c5c(nc(OC[C@@]67CCCN6C[C@H](F)C7)nc5c3F)N([C@H](C)c3cccnc3N)CCO4)c12 | True
C[C@H](c1cccnc1N)N1CCOc2nc(-c3cncc4cccc(Cl)c34)c(F)c3nc(OC[C@@]45CCCN4C[C@H](F)C5)nc1c23 | False
C[C@H](c1cccnc1N)N1CCOc2nc(-c3cc(N)ncc3C(F)(F)F)c(F)c3nc(OC[C@@]45CCCN4C[C@H](F)C5)nc1c23 | False
Cc1c(F)c(N)nc(-c2nc3c4c(nc(OC[C@@]56CCCN5C[C@H](F)C6)nc4c2F)N([C@H](C)c2cccnc2N)CCO3)c1C(F)(F)F | True
Cc1c(F)c(N)cc(-c2nc3c4c(nc(OC[C@@]56CCCN5C[C@H](F)C6)nc4c2F)N([C@H](C)c2cccnc2N)CCO3)c1C(F)(F)F | True
Cc1nc(N)cc(-c2nc3c4c(nc(OC[C@@]56CCCN5C[C@H](F)C6)nc4c2Cl)N([C@H](C)c2cccnc2N)CCO3)c1C(F)(F)F | True

* * *

# System: HPAC cells
# assay.notes: HPAC 3D proliferation assay (CellTiter-Glo)
# Assay type: cell-based
# stated.conditions: Homo sapiens, 168 h, 3D culture, 7 days, read-out: HPAC CTG IC50
In this section, each of the molecules is paired with its reported log10 IC50.
measurement.label: log10 IC50 (log10 of the value in nM)

molecule | log10 IC50
C[C@H](c1cccnc1N)N1CCOc2nc(-c3cc(O)cc4ccccc34)c(F)c3nc(OC[C@@]45CCCN4C[C@H](F)C5)nc1c23 [Example 26] | 2.62
C#Cc1c(F)ccc2cc(O)cc(-c3nc4c5c(nc(OC[C@@]67CCCN6C[C@H](F)C7)nc5c3F)N([C@H](C)c3cccnc3N)CCO4)c12 [Example 2] | 1.32
Cc1cc(N)nc(-c2nc3c4c(nc(OC[C@@]56CCCN5C[C@H](F)C6)nc4c2F)N(C(C)c2scnc2N)CCO3)c1C(F)(F)F (some centres unmarked) [Example 607] | 2.48
C[C@H](c1cccnc1N)N1CCOc2nc(-c3c(C(F)(F)F)ccc(N)c3Cl)c(F)c3nc(OC[C@@]45CCCN4C[C@H](F)C5)nc1c23 (atropisomer, axis not shown; (aS)) [Example 622a] | 1.60
C[C@H](c1cccnc1N)N1CCOc2nc(-c3c(F)ccc4cnn(C)c34)c(F)c3nc(OC[C@@]45CCCN4C[C@H](F)C5)nc1c23 [Example 634] | 3.24
C[C@H](c1cccnc1N)N1CCOc2nc(-c3cc(N)ncc3C(F)(F)F)c(F)c3nc(OC[C@@]45CCCN4C[C@H](F)C5)nc1c23 [Example 608] | 2.96
Cc1c(F)c(N)cc(-c2nc3c4c(nc(OC[C@@]56CCCN5C[C@H](F)C6)nc4c2Cl)N([C@H](C)c2cccnc2N)CCO3)c1C(F)(F)F [Example 32] | 1.27
C[C@H](c1cccnc1N)N1CCOc2nc(-c3nc(N)cc4ccccc34)c(F)c3nc(OC[C@@]45CCCN4C[C@H](F)C5)nc1c23 [Example 618] | 3.02
Cc1c(F)c(N)c(F)c(-c2nc3c4c(nc(OC[C@@]56CCCN5C[C@H](F)C6)nc4c2F)N([C@H](C)c2cccnc2N)CCO3)c1C(F)(F)F [Example 12] | 1.17
CCc1cccc2cc(O)cc(-c3nc4c5c(nc(OC[C@@]67CCCN6C[C@H](F)C7)nc5c3F)N([C@H](C)c3cccnc3N)CCO4)c12 [Example 27] | 1.74
Cc1cc(N)c(F)c(-c2nc3c4c(nc(OC[C@@]56CCCN5C[C@H](F)C6)nc4c2F)N([C@H](C)c2cccnc2N)CCO3)c1C(F)(F)F [Example 15] | 0.95
Cc1c(F)c(N)nc(-c2nc3c4c(nc(OC[C@@]56CCCN5C[C@H](F)C6)nc4c2F)N([C@H](C)c2cc(F)cnc2N)CCO3)c1C(F)(F)F [Example 631] | 2.04
C[C@H](c1cccnc1N)N1CCOc2nc(-c3c(C(F)(F)F)cc(F)c(N)c3F)c(F)c3nc(OC[C@@]45CCCN4C[C@H](F)C5)nc1c23 [Example 621] | 2.53
C#Cc1cccc2cc(O)cc(-c3nc4c5c(nc(OC[C@@]67CCCN6C[C@H](F)C7)nc5c3F)N([C@H](C)c3nccnc3N)CCO4)c12 [Example 11] | 2.24
Cc1c(F)c(N)cc(-c2nc3c4c(nc(OC[C@@H]5CC(F)(F)CN5C)nc4c2F)N([C@H](C)c2nccnc2N)CCO3)c1C(F)(F)F [Example 8] | 3.30
Cc1c(F)c(N)cc(-c2nc3c4c(nc(OC[C@@]56CCCN5C[C@H](F)C6)nc4c2F)N([C@H](C)c2cncnc2N)CCO3)c1C(F)(F)F [Example 617] | 2.38
Cc1c(F)c(N)cc(-c2nc3c4c(nc(OC[C@@H]5CC[C@H]6COCCN65)nc4c2F)N([C@H](C)c2nccnc2N)CCO3)c1C(F)(F)F [Example 10] | 2.64
C#Cc1cccc2cc(N)cc(-c3nc4c5c(nc(OC[C@@]67CCCN6C[C@H](F)C7)nc5c3F)N([C@H](C)c3cccnc3N)CCO4)c12 [Example 4] | 0.76
C[C@H](c1cccnc1N)N1CCOc2nc(-c3c(C(F)(F)F)ccc(N)c3Cl)c(F)c3nc(OC[C@@]45CCCN4C[C@H](F)C5)nc1c23 (single isomer, unassigned) [Example 622b] | 2.09
C#Cc1cccc2nc(N)cc(-c3nc4c5c(nc(OC[C@@]67CCCN6C[C@H](F)C7)nc5c3F)N([C@H](C)c3cccnc3N)CCO4)c12 [Example 30] | 1.20
Cc1c(F)c(N)cc(-c2nc3c4c(nc(OC[C@@]56CCCN5C[C@H](F)C6)nc4c2F)N([C@H](C)c2cccnc2N)CCO3)c1C(F)(F)F [Example 5] | 0.70
Cc1cc(N)nc(-c2nc3c4c(nc(OC[C@@]56CCCN5C[C@H](F)C6)nc4c2Cl)N([C@H](C)c2cccnc2N)CCO3)c1C(F)(F)F [Example 633] | 1.89
Cc1cc(N)c(F)c(-c2nc3c4c(nc(OC[C@@H]5CC[C@H]6COCCN65)nc4c2F)N([C@H](C)c2cccnc2N)CCO3)c1C(F)(F)F [Example 22] | 1.83
